- assay-name: Analgesic Test by Phenylquinone Writhing Method
- Format: in vivo, Male ddY mice
- condition-label: p.o.; combined with emorfazone 20 mg/kg (1/2 of its ED50)
endpoint: ED50 dose obtained experimentally, with emorfazone 20 (mg/kg)

compound | test-value
CC(C(=O)O)c1ccc(-c2ccccc2)c(F)c1 (centres unmarked) | 0.8
CCCCC1C(=O)N(c2ccccc2)N(c2ccccc2)C1=O | 16
CC(C)Cc1ccc(C(C)C(=O)O)cc1 (centres unmarked) | 3
COc1ccc2c(c1)c(CC(=O)O)c(C)n2C(=O)c1ccc(Cl)cc1 | 0.18
CC(=O)Oc1ccccc1C(=O)O | 40
Cc1cccc(Nc2ccccc2C(=O)O)c1C | 13
CC(C(=O)O)c1cccc(C(=O)c2ccccc2)c1 (centres unmarked) | 0.23
COc1ccc2cc([C@H](C)C(=O)O)ccc2c1 | 4.1

###

# theoretical additive ED50 dose, with emorfazone 4.5 values compiled below
- assay-name: Analgesic Test by Randall-Selitto Method (carrageenin inflammatory pain)
- Format: in vivo, Male Wistar rats
- condition-label: p.o.; combined with emorfazone 4.5 mg/kg; theoretical additive dose
endpoint: theoretical additive ED50 dose, with emorfazone 4.5 (mg/kg)

molecule | test-value
CCCCC1C(=O)N(c2ccccc2)N(c2ccccc2)C1=O | 93.8
COc1ccc2c(c1)c(CC(=O)O)c(C)n2C(=O)c1ccc(Cl)cc1 | 5.1
CC(=O)Oc1ccccc1C(=O)O | 255
CC(C(=O)O)c1cccc(C(=O)c2ccccc2)c1 (centres unmarked) | 4.5
CC(C(=O)O)c1ccc(-c2ccccc2)c(F)c1 (centres unmarked) | 16.5
Cc1cccc(Nc2ccccc2C(=O)O)c1C | 90
CC(C)Cc1ccc(C(C)C(=O)O)cc1 (centres unmarked) | 90
COc1ccc2cc([C@H](C)C(=O)O)ccc2c1 | 180

###

- assay-name: Analgesic Test by Phenylquinone Writhing Method
- Type: in vivo, Male ddY mice
- condition-label: Mus musculus, po, read-out: ED50 (dose that reduced the number of writhes of the control group by 50%), drug alone
The following compounds are listed with their measured ED50 values.

compound | ED50 (mg/kg)
COc1ccc2c(c1)c(CC(=O)O)c(C)n2C(=O)c1ccc(Cl)cc1 | 0.52
COc1ccc2cc([C@H](C)C(=O)O)ccc2c1 | 9
CC(=O)Oc1ccccc1C(=O)O | 155
CCOc1c(N2CCOCC2)cnn(C)c1=O | 40
CC(C)Cc1ccc(C(C)C(=O)O)cc1 (stereo not drawn) | 13.5
Cc1cccc(Nc2ccccc2C(=O)O)c1C | 36
CC(C(=O)O)c1cccc(C(=O)c2ccccc2)c1 (stereo not drawn) | 0.5
CC(C(=O)O)c1ccc(-c2ccccc2)c(F)c1 (stereo not drawn) | 2
CCCCC1C(=O)N(c2ccccc2)N(c2ccccc2)C1=O | 66

###

- assay-name: Analgesic Test by Phenylquinone Writhing Method
- Format: in vivo, Male ddY mice
- condition-label: p.o.; combined with emorfazone 10 mg/kg; theoretical additive dose
Outcome label depends on theoretical additive ED50 dose, with emorfazone 10 relative to 10 mg/kg: at/above gives condition met, below gives condition not met.

compound | cat
COc1ccc2cc([C@H](C)C(=O)O)ccc2c1 | condition not met
CC(C(=O)O)c1cccc(C(=O)c2ccccc2)c1 (centres unmarked) | condition not met
COc1ccc2c(c1)c(CC(=O)O)c(C)n2C(=O)c1ccc(Cl)cc1 | condition not met
CC(=O)Oc1ccccc1C(=O)O | condition met
Cc1cccc(Nc2ccccc2C(=O)O)c1C | condition met
CCCCC1C(=O)N(c2ccccc2)N(c2ccccc2)C1=O | condition met
CC(C(=O)O)c1ccc(-c2ccccc2)c(F)c1 (centres unmarked) | condition not met
